- target_desc: hGLP-1R (Homo sapiens, UniProt P43220)
- Sequence (P43220 24-463): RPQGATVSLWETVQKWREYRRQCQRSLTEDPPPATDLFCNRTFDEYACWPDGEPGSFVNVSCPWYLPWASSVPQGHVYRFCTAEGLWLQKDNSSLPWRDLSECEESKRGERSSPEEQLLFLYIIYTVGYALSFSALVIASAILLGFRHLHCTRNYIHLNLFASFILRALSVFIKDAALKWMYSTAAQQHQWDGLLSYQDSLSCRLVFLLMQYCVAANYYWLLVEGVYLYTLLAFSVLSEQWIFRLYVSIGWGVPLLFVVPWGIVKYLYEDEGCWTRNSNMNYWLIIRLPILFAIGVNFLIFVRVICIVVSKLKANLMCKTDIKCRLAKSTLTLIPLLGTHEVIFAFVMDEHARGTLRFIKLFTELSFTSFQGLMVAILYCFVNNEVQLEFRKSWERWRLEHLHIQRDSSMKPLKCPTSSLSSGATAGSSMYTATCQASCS
- procedure_details: Functional cAMP activity in the presence of 1% HSA
- Assay type: cell-based
- condition_notes: read-out: cAMP Rel EC50, hGLP-1R
Starred links: 1 amine or outer side, 2 acyl side, 3 side chain; linkers in the order of their positions; H or OH if unused. Non-standard residues stand in square brackets, D forms with d. Groups on a side chain read outwards from the residue. *: point of attachment. C18 diacid = O=C(O)CCCCCCCCCCCCCCCCC(=O)*; αMePhe(2-F) = C[C@](N)(Cc1ccccc1F)C(=O)O; γGlu = O=C(O)[C@H](CCC(=O)[*:2])N[*:1]; αMe4Pal = C[C@](N)(Cc1ccncc1)C(=O)O; αMeY = C[C@](N)(Cc1ccc(O)cc1)C(=O)O; 4Pal = N[C@@H](Cc1ccncc1)C(=O)O; αMeL = CC(C)C[C@](C)(N)C(=O)O; αMeS = C[C@](N)(CO)C(=O)O; Orn = NCCC[C@H](N)C(=O)O; AEEA = NCCOCCOCC(=O)O; Aib = CC(C)(N)C(=O)O
I'd appreciate it if you could supply EC50 values for the items below.
Give bare numbers, in nM.

substance	assay_result
H-Y[Aib]QGT[αMePhe(2-F)]TSD[4Pal][αMeS]I[αMeL]LD[Orn]K([γGlu-γGlu-C18 diacid])AQ[αMe4Pal]EFI[dE][αMeY]LVEGGPSSGEPPPSGS-NH2 [Example 737]	22.3
H-Y[Aib]QGT[αMePhe(2-F)]TSD[4Pal][αMeS]I[αMeL]LD[Orn]K([γGlu-γGlu-C18 diacid])AQ[αMe4Pal]EFI[dE][αMeY]LIEGGPSSGEPPPSGS-NH2 [Example 715]	19.7

Input line: Please list EC50 recorded for the substance H-Y[Aib]QGT[αMePhe(2-F)]TSD[4Pal][αMeS]I[αMeL]LD[Orn]K([AEEA-γGlu-C18 diacid])AQ[αMe4Pal]EFI[dE][αMeY]LVEGGPSSGAPPPEGE-NH2 [Example 1158]
Output line: 46.8
